Tested on: HT29 colon
Test: NCI-60 one-dose screen, 48 h
Conditions: 10 µM unless noted
Compounds without any hit were thinned out: in the full panel of roughly 83,000, 20% have a hit. The source made the active and inactive calls. How the source made its calls: active means growth percent below 10; inactive means the rest.
Answer with one of the outcomes given here: active, inactive

compound | target entity | label
Cc1ccc(S(=O)(=O)OC[C@]23CCC(C)(C)C[C@H]2C2=CC[C@@H]4[C@@]5(C)CCCNC(C)(C)[C@@H]5CC[C@@]4(C)[C@]2(C)CC3)cc1 | HT29 colon | active
CCn1cc(C(=O)N/N=C/c2cccc(F)c2)c(=O)c2cc(F)c(N3CCNC(C)C3)c(F)c21 (centres undefined) | HT29 colon | active
Cc1c2ccccc2nc2cc3c(cc12)[C@H]1CC[C@]2(C)C(=O)CC[C@H]2[C@@H]1CC3 | HT29 colon | inactive
COc1cc(-c2ccc[nH]2)[nH]c1/C=C1\N=C(C)C(CC(=O)OCC(C)(C)C)=C1C | HT29 colon | active
CCN(CC)CCOc1ccc(C(=O)/C=C\c2ccc(Cl)cc2Cl)cc1 | HT29 colon | active

Could you kindly confirm the outcome this assay logged for "COc1cc(C=Nc2oc(-c3ccccc3)c(-c3ccccc3)c2C#N)cc(CN2CCCC2)c1O" ?
inactive

Could you kindly confirm the outcome this assay logged for "CCCCNC(=O)c1ccc2c(c1)nc(-c1ccccc1)n2C1CCCCC1" ?
inactive

Could you kindly confirm the outcome this assay logged for COc1cc2c(c(OC)c1OC)C(=O)CC(c1cccc(C(=O)Nc3ccccc3Br)c1)O2 (centres undefined) ?
inactive

Could you kindly confirm the outcome this assay logged for "CCN(CC)C(=O)CC1=C(C)/C(=C/c2[nH]c(-c3ccc[nH]3)cc2OC)N=C1C" ?
inactive
